Entry source: patent US10662204B2

# system_under_test: KRAS G12C (Homo sapiens, UniProt P01116, G12C)
# Sequence (P01116 1-188 isoform P01116-2 G12C): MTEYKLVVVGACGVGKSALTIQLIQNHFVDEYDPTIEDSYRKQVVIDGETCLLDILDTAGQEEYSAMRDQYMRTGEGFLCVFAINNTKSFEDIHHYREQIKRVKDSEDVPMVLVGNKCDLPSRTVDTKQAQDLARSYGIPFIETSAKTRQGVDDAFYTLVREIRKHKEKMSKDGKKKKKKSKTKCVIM
# test: Cell Activity Assay: accumulation of GDP-bound KRAS G12C in MIAPaCa-2 cells (Raf-1 RBD capture, MSD readout)
# Assay type: cell-based
# Parameters: endogenous in cells; host or cells: MIAPaCa-2
# measurement_setup: 6 hours, assay limit is 30.00
outcome_measure: IC50
Your reply should be a number followed by the unit it is expressed in.

Data request: What value of IC50 has been recorded for this entry: C=CC(=O)N1CCN(c2ncnc3c(Oc4c(Cl)c(C)cc5[nH]ncc45)nc(C)cc23)CC1 [Example 05C]
Data returned: 1.29 µM

Data request: What value of IC50 has been recorded for this entry: C=CC(=O)N1CCN(c2nc(Oc3cccc4c3CCN(C(C)C)C4)nc3c(Oc4c(C)ccc5[nH]ncc45)nccc23)CC1 [Example 30I]
Data returned: 0.03 µM

Data request: What value of IC50 has been recorded for this entry: C=CC(=O)N1CCN(c2nc(OC[C@H]3CCCN3C(C)=O)nc3c(Oc4c(Cl)c(F)cc5[nH]ncc45)nccc23)CC1 [Example 04J]
Data returned: 0.989 µM

Data request: What value of IC50 has been recorded for this entry: C=CC(=O)N1CCN(c2ncnc3c(Oc4c(Cl)c(C)cc5[nH]ncc45)nccc23)C[C@H]1C [Example 21A]
Data returned: 10.6 µM
